# Test system: HCT116
# METHOD SUMMARY: MTT antiproliferative assay, HCT116
# Type: cell-based, human
# CONDITION: Homo sapiens, HCT-116, 72 h, HCT116, 72 h incubation, mean ± SD of three independent experiments
IC50 overview

[
  {
    "MOLECULE": "Cn1cc(/C=C/C(=O)c2ccccc2O)c2ccccc21 [13b]",
    "IC50": "34.7 µM"
  },
  {
    "MOLECULE": "O=C(/C=C/c1c(OCCO)[nH]c2ccccc12)c1ccccc1F [11k]",
    "IC50": "39.4 µM"
  },
  {
    "MOLECULE": "O=C(/C=C/c1c[nH]c2ccccc12)c1ccc(C(F)(F)F)cc1 [12a]",
    "IC50": "59.1 µM"
  }
]

Suppose we examine the molecule COn1cc(/C=C/C(=O)c2ccc(C(F)(F)F)cc2)c2ccccc21 [12c] ; what IC50 value has been reported?
55.3 µM

###

melting point overview

In the examples that follow, each entry is paired with its recorded melting point.
[
  {
    "COMPOUND": "Cn1cc(C(=O)/C=C/c2ccc(O)c(O)c2)c2ccccc21 [18b]",
    "melting point": "210 to 214 °C"
  },
  {
    "COMPOUND": "O=C(/C=C/c1ccc(O)c(O)c1)c1c[nH]c2ccccc12 [18a]",
    "melting point": "212 to 215 °C"
  },
  {
    "COMPOUND": "COn1cc(C(=O)/C=C/c2ccc(O)c(O)c2)c2ccccc21 [18c]",
    "melting point": "206 to 209 °C"
  },
  {
    "COMPOUND": "COc1cc(/C=C/C(=O)c2cn(C)c3ccccc23)ccc1O [19b]",
    "melting point": "170 to 172 °C"
  },
  {
    "COMPOUND": "O=C(/C=C/c1ccc(O)cc1)c1c[nH]c2ccccc12 [17a]",
    "melting point": "197 to 200 °C"
  },
  {
    "COMPOUND": "Cn1cc(/C=C/C(=O)c2ccc(C(F)(F)F)cc2)c2ccccc21 [12b]",
    "melting point": "182 to 184 °C"
  },
  {
    "COMPOUND": "COn1cc(/C=C/C(=O)c2ccc(O)cc2)c2ccccc21 [14c]",
    "melting point": "182 to 184 °C"
  },
  {
    "COMPOUND": "Cn1cc(/C=C/C(=O)c2ccc(O)cc2)c2ccccc21 [14b]",
    "melting point": "244 °C"
  },
  {
    "COMPOUND": "O=C(/C=C/c1c[nH]c2ccccc12)c1ccc(O)cc1 [14a]",
    "melting point": "218 °C"
  },
  {
    "COMPOUND": "COn1cc(C(=O)/C=C/c2ccc(O)cc2)c2ccccc21 [17c]",
    "melting point": "213 to 215 °C"
  }
]

Suppose we examine the compound O=C(/C=C/c1c[nH]c2ccccc12)c1ccccc1O [13a] ; what melting point value has been reported?
179.5 to 181 °C

Suppose we examine the compound O=C(/C=C/c1c(OCCO)[nH]c2ccccc12)c1ccccc1F [11k] ; what melting point value has been reported?
140 to 143 °C

Suppose we examine the compound Cn1cc(C(=O)/C=C/c2ccc(O)cc2)c2ccccc21 [17b] ; what melting point value has been reported?
236 to 239 °C

Suppose we examine the compound COn1cc(/C=C/C(=O)c2ccccc2O)c2ccccc21 [13c] ; what melting point value has been reported?
139 to 140 °C

Suppose we examine the compound COn1cc(/C=C/C(=O)c2ccc(C(F)(F)F)cc2)c2ccccc21 [12c] ; what melting point value has been reported?
113 to 115 °C

Suppose we examine the compound Cn1cc(/C=C/C(=O)c2ccccc2O)c2ccccc21 [13b] ; what melting point value has been reported?
205 to 207 °C

Suppose we examine the compound COc1cc(/C=C/C(=O)c2cn(OC)c3ccccc23)ccc1O [19c] ; what melting point value has been reported?
155 to 156 °C

Suppose we examine the compound COc1cc(/C=C/C(=O)c2c[nH]c3ccccc23)ccc1O [19a] ; what melting point value has been reported?
200 to 203 °C

Suppose we examine the compound O=C(/C=C/c1c[nH]c2ccccc12)c1ccc(C(F)(F)F)cc1 [12a] ; what melting point value has been reported?
195 to 197 °C
